target: N-terminally GST-tagged human full length recombinant Mps-1 kinase (Homo sapiens, UniProt P33981); construct: N-terminally GST-tagged human full length recombinant Mps-1 kinase; purchased Invitrogen, Karslruhe, Germany PV4071; test: Mps-1 kinase assay (TR-FRET); assay type: biochemical; conditions: Mps1 IC50 [nM], 10 μM ATP, 1 μM peptide substrate, 60 min at 22° C.
ENDPOINT NAME: IC50 (nM)

The following molecules have reported results that may help.
- CC(=O)NCCCNc1cc(Oc2cccc(F)c2)nn2c(-c3ccc(C(=O)NC4CC4)c(C)c3)cnc12 [Example 509]: 0.1
- CCNC(=O)c1ccc(-c2cnc3c(NCCN4CCOCC4)cc(Oc4ccc(OC)cc4F)nn23)cc1C [Example 591]: 2.5
- Cc1cc(-c2cnc3c(NCC(C)(C)O)cc(SC4CCOCC4)nn23)ccc1C(=O)NC1CC1 [Example 335]: 3.6

A: Cc1cc(-c2cnc3c(NC[C@H]4CCCO4)cc(-c4ccnn4C)nn23)ccc1C(=O)NC1CC1 [Example 33]
B: Cc1cc(-c2cnc3c(NCC(C)(C)O)cc(-c4c(C)noc4C)nn23)ccc1C(=O)NC1CC1 [Example 159]
Which value of IC50 is smaller, the one for A or the one for B ? Please reply using the label of the selected record.
A

* * *

Target: N-terminally GST-tagged human full length recombinant Mps-1 kinase (Homo sapiens)
Construct: N-terminally GST-tagged human full length recombinant Mps-1 kinase; purchased Invitrogen, Karslruhe, Germany PV4071
Sequence (P33981 1-857): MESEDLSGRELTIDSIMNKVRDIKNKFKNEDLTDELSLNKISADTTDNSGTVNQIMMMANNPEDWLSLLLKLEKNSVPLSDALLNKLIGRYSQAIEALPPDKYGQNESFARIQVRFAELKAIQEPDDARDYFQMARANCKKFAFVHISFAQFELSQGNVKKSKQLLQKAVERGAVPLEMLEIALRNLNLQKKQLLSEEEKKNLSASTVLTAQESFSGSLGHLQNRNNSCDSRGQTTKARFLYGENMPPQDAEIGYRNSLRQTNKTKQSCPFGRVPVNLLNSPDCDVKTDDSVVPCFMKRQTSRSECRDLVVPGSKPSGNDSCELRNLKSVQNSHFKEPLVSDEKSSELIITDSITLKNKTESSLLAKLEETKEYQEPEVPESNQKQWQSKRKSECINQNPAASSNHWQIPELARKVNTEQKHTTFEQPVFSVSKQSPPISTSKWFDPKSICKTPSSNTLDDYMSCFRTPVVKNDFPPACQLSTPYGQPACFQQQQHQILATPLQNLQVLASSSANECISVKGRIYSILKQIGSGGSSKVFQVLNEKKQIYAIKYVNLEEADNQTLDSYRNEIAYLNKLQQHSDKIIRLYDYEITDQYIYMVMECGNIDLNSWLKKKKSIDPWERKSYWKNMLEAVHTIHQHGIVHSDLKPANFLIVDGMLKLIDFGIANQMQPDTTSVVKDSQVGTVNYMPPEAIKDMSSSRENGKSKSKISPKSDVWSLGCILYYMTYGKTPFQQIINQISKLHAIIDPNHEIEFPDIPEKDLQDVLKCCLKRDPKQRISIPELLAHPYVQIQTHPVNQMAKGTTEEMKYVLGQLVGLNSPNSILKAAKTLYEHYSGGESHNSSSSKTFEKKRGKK
Assay: Mps-1 kinase assay (TR-FRET)
Assay type: biochemical
Details: Mps1 IC50 [nM], 10 μM ATP, 1 μM peptide substrate, 60 min at 22° C.
ENDPOINT NAME: IC50 (nM)

- Cc1cc(-c2cnc3c(NCC(C)(C)N)cc(Oc4cccnc4)nn23)ccc1C(=O)NC1CC1: 1.8

1: COc1ccc(Oc2cc(NCCC(F)(F)F)c3ncc(-c4ccc(C(=O)NC5CC5)c(C)c4)n3n2)cc1
2: CC(C)CNc1cc(Cl)nn2c(-c3ccc(-c4cnc(C5CC5)[nH]4)cc3)cnc12
Between the entries labelled 1 and 2 , which has a larger IC50 value on record? Give the label of your selection.
2

P: CCCSc1cc(NCC(C)C)c2ncc(-c3ccc(C(=O)NC4CC4)c(C)c3)n2n1
Q: Cc1cc(-c2cnc3c(NCC(C)(C)O)cc(-c4ccc(CO)cc4)nn23)ccc1C(=O)NC1CC1
R: Cc1cc(-c2cnc3c(NCCC(F)(F)F)cc(Oc4cccc5ccc(=O)[nH]c45)nn23)ccc1C(=O)NC1CC1
S: COc1ccc(Sc2cc(NCCC(F)(F)F)c3ncc(-c4ccc(C(=O)NC5CC5)c(C)c4)n3n2)cc1
T: Cc1cc(-c2cnc3c(NCCC(F)(F)F)cc(Oc4cccc(OC(C)C)c4)nn23)ccc1C(=O)NC1CC1
Parameters: sort_field (IC50), sort_dir (desc). List each label, following the requested order.
R, Q, P, T, S

I: CC(C)CNc1cc(-c2ccc(C(=O)NC(C)C)cc2)nn2c(-c3ccc(C(=O)NC4CC4)cc3)cnc12
II: Cc1cc(-c2cnc3c(NCC(C)(C)N4CCOCC4)cc(Oc4cccc(F)c4)nn23)ccc1C(=O)NC1CC1
III: CCNC(=O)c1ccc(-c2cnc3c(NCC4CCOCC4)cc(Oc4ccccc4C)nn23)cc1C
IV: COc1cc(F)ccc1Nc1cc(NCCCC(F)(F)F)c2ncc(-c3ccc(C(=O)NC4CC4)c(C)c3)n2n1
Order the entries by their reported IC50, beginning at the minimum. Answer by listing the labels in the requested order.
II, III, I, IV

P: Cc1cc(-c2cnc3c(NCCC(F)(F)F)cc([S+]([O-])c4cccc(F)c4)nn23)ccc1C(=O)NC1CC1 (racemic) [Example 83B]
Q: COc1cc(C(=O)NC2CC2)ccc1-c1cnc2c(NCC(C)(C)O)cc(Sc3cccc(F)c3)nn12 [Example 62B]
Look at P and Q . Which one has the lower recorded IC50 number? Could you answer with the label of the item you picked?
P
(P: 0.8 nM, Q: 11.5 nM)
